- Tested on: L6-myotubes
- assay.notes: Glucose uptake in differentiated L6-myotubes (Biological Example 2)
- Assay type: cell-based
- test.settings: glucose uptake in differentiated L6-myotubes; compound at 10 μM, activity relative to isoproterenol at 10 μM; read-out: Biological example 2 (GU)
Give measured Emax at 10 µM for each item. Keep answers brief.

Observe how each entry below is paired with its result.
| structure.smiles.string | Emax at 10 µM |
| --- | --- |
| CN([C@H]1CC[C@H](CC(C)(C)NC[C@H](O)c2cccc(F)c2)CC1)S(C)(=O)=O | 25 to 50% |
| O[C@@H](c1cccc(F)c1)C12CCC(CCc3ccc(Cl)cc3)(CC1)N2 | < 25% |
| CC(C)(NC[C@H](O)c1cncc(F)c1)[C@H]1CC[C@H](N)CC1 | < 25% |
| CC(C)(C[C@H]1CC[C@H](NS(C)(=O)=O)CC1)NC[C@H](O)c1cccc(C#N)n1 | > 75% |
| CO[C@H]1CC[C@H](CCC(C)(C)NC[C@H](O)c2cccc(F)c2)CC1 | 50 to 75% |

State recorded Emax at 10 µM for all listed compounds.
1. CN([C@H]1CC[C@@H](CC(C)(C)NC[C@H](O)c2cncc(F)c2)CC1)S(C)(=O)=O
2. CS(=O)(=O)N(Cc1ccccc1)c1cccc(CC23CCC([C@@H](O)c4cccc(F)c4)(CC2)N3)c1
3. CC(C)(C[C@H]1CC[C@H](N)CC1)NC[C@@H](O)c1cccc(C#N)n1

1: 50 to 75%; 2: < 25%; 3: 50 to 75%
